Entry source: paper PMC10527105

Target Or Test System: human dopamine transporter/SLC6A3 (DAT) (Homo sapiens, UniProt Q01959)
Construct: expressed in transfected cells; host or cells: HEK293
Sequence (Q01959 whole entry): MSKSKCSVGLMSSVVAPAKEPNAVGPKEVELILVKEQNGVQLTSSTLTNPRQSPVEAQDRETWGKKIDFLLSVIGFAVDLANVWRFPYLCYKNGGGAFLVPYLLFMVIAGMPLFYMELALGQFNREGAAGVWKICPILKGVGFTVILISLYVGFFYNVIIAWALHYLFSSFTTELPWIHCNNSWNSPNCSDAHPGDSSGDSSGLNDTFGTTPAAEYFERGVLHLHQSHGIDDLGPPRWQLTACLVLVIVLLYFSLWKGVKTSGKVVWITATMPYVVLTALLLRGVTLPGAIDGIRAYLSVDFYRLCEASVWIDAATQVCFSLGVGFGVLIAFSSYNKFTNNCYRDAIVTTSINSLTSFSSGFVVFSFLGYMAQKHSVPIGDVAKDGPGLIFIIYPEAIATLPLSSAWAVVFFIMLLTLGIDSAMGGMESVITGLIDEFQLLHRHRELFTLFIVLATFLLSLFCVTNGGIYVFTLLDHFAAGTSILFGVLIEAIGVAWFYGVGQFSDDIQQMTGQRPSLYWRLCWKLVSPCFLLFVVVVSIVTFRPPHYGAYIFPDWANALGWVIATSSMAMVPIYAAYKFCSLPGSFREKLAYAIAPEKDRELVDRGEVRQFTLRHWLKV
Method Notes: Cellular uptake experiments: [3H]-dopamine reuptake inhibition in transporter-expressing HEK293 cells
Assay type: cell-based
Run Parameters: at 50 µM
Description: Cell culture. Human embryonic kidney (HEK) 293 or SK-N-MC (human neuroblastoma) cells were grown in minimum essential medium with Earle’s salts and L-glutamine, 10% heat-inactivated fetal bovine serum, and 50 mg/L gentamicin. […] Cellular uptake experiments. […] Nonspecific uptake was determined in the presence of 10 µM mazindol (DAT- and NET-cells) or 10 µM clomipramine (SERT-cells). […]
Measured Property: activity on DAT (reuptake inhibition), in words

[O-][S+](Cc1cccs1)C(c1ccccc1)c1ccccc1Br (stereo not shown) [Compound 7g] :: no effect
[O-][S+](Cc1cccs1)C(c1ccccc1)c1ccccc1Br (stereo not shown) [Compound 5g] :: no effect
